From: patent US20230174649A1

System: Toledo Cells
method: FACS-based phagocytosis assay, macrophages cocultured with Toledo cells
Type: cell-based, Human
details: Cpd 1 uM, T4J = 0.1 ug/ml, R = 0.01 ug/ml
readout.name: macrophage phagocytosis (untreated = 1.00)

>  <molecule>
Nc1ncn([C@@H]2O[C@H](CO)[C@@H](O)[C@H]2O)c(=O)n1

>  <reported>
3.45

$$$$
>  <molecule>
CC1(C)CCC(CN2CCN(c3ccc(C(=O)NS(=O)(=O)c4ccc(NCC5CCOCC5)c([N+](=O)[O-])c4)c(Oc4cnc5[nH]ccc5c4)c3)CC2)=C(c2ccc(Cl)cc2)C1

>  <reported>
3.65

$$$$
>  <molecule>
Nc1cccc2c1CN(C1CCC(=O)NC1=O)C2=O (stereo not shown) [Lenalidomide]

>  <reported>
3.07

$$$$
>  <molecule>
Cn1c(CCCC(=O)O)nc2cc(N(CCCl)CCCl)ccc21

>  <reported>
3.05

$$$$

###

Test system: Calreticulin
method: FACS analysis of expression level of calreticulin on tumor cell surface
Assay type: cell-based, Human
details: Toledo cells, 12 hours, 0.008 uM
readout.name: Mean Fluorescence Intensity (MFI) Calreticulin

>  <compound>
COc1c(OCCCN2CCOCC2)ccc2c1N=C(NC(=O)c1cnc(N)nc1)N1CCN=C21

>  <reported>
69.8

$$$$
>  <compound>
Nc1cccc2c1CN(C1CCC(=O)NC1=O)C2=O (stereo not drawn) [Lenalidomide]

>  <reported>
69.3

$$$$
>  <compound>
CC[C@H](Nc1ncnc2[nH]cnc12)c1nc2cccc(F)c2c(=O)n1-c1ccccc1

>  <reported>
69.4

$$$$
>  <compound>
C[C@H](Nc1ncnc2nc[nH]c12)c1cc2cccc(Cl)c2c(=O)n1-c1ccccc1

>  <reported>
71.4

$$$$
>  <compound>
C=CC(=O)N1CCC[C@@H](n2nc(-c3ccc(Oc4ccccc4)cc3)c3c(N)ncnc32)C1

>  <reported>
70.6

$$$$
>  <compound>
Cn1c(CCCC(=O)O)nc2cc(N(CCCl)CCCl)ccc21

>  <reported>
68.6

$$$$

###

Tested on: Toledo Cells
method: FACS-based phagocytosis assay, macrophages cocultured with Toledo cells
Type: cell-based, Human
details: Cpd 0.04 uM, T4J = 0.1 ug/ml, R = 0
readout.name: macrophage phagocytosis (untreated = 1.00)

>  <chem.smiles>
CC1(C)CCC(CN2CCN(c3ccc(C(=O)NS(=O)(=O)c4ccc(NCC5CCOCC5)c([N+](=O)[O-])c4)c(Oc4cnc5[nH]ccc5c4)c3)CC2)=C(c2ccc(Cl)cc2)C1

>  <reported>
2.64

$$$$
>  <chem.smiles>
Nc1ncn([C@@H]2O[C@H](CO)[C@@H](O)[C@H]2O)c(=O)n1

>  <reported>
2.76

$$$$
>  <chem.smiles>
Cn1c(CCCC(=O)O)nc2cc(N(CCCl)CCCl)ccc21

>  <reported>
2.57

$$$$

###

System: CD47
method: FACS analysis of expression level of CD47 on tumor cell surface
Type: cell-based, Human
details: Toledo cells, 12 hours, 5 uM

>  <molecule>
Nc1ncn([C@@H]2O[C@H](CO)[C@@H](O)[C@H]2O)c(=O)n1 [Azacitidine]

>  <Mean Fluorescence Intensity (MFI) CD47>
5229

$$$$
>  <molecule>
C[C@H](Nc1ncnc2nc[nH]c12)c1cc2cccc(Cl)c2c(=O)n1-c1ccccc1 [Duvelisib]

>  <Mean Fluorescence Intensity (MFI) CD47>
8482

$$$$
>  <molecule>
Cn1c(CCCC(=O)O)nc2cc(N(CCCl)CCCl)ccc21 [Bendamustine]

>  <Mean Fluorescence Intensity (MFI) CD47>
9192

$$$$
>  <molecule>
CC[C@H](Nc1ncnc2[nH]cnc12)c1nc2cccc(F)c2c(=O)n1-c1ccccc1 [Idelalisib]

>  <Mean Fluorescence Intensity (MFI) CD47>
8263

$$$$
